experiment: Chemical stability in PBS buffer
Type: physicochemical
condition description: PBS pH 5, 37° C., read-out: Chem stability (t ½ @ pH = 5)
Examples of compounds with documented half-life at 1 µM follow.
measurement label: half-life at 1 µM

C[C@H](CCCC(C)(C)O)[C@H]1CC[C@H]2[C@@H]3CC=C4C[C@@H](OC(=O)OCC[N+](C)(C)C)CC[C@]4(C)[C@H]3CC[C@]12C.[I-]
> 8.33 h
C[C@H](CCCC(C)(C)O)[C@H]1CC[C@H]2[C@@H]3CC=C4C[C@@H](OC(=O)CCC(=O)O)CC[C@]4(C)[C@H]3CC[C@]12C
> 8.33 h

====

experiment: Plasma stability (rabbit)
Format: in vitro ADME
condition description: 37° C., read-out: Plasma stability (rabbit) t ½
Protocol: A 4 mM compound stock solution was prepared by dissolving the appropriate amount of compound in MeOH, then a […] was prepared by adding 2 μL aforementioned 4 mM stock solution in 78 μL DMSO. […] The MS detection was performed using a Sciex API 4000 Qtrap and 6500 Plus instrument, and each compound was analyzed by reverse phase HPLC.
measurement label: half-life at 0.1 µM

C[C@H](CCCC(C)(C)O)[C@H]1CC[C@H]2[C@@H]3CC=C4C[C@@H](OC(=O)OCC[N+](C)(C)C)CC[C@]4(C)[C@H]3CC[C@]12C.[I-] [Compound 1.25]
> 8.33 h
C[C@H](CCCC(C)(C)O)[C@H]1CC[C@H]2[C@@H]3CC=C4C[C@@H](OC(=O)CCC(=O)O)CC[C@]4(C)[C@H]3CC[C@]12C [Compound 1.18]
> 8.33 h

====

experiment: Plasma stability (human)
Type: in vitro ADME
condition description: 37° C., read-out: Plasma stability (human) t ½
Procedure: A 4 mM compound stock solution was prepared by dissolving the appropriate amount of compound in MeOH, then a […] was prepared by adding 2 μL aforementioned 4 mM stock solution in 78 μL DMSO. […] The MS detection was performed using a Sciex API 4000 Qtrap and 6500 Plus instrument, and each compound was analyzed by reverse phase HPLC.
measurement label: half-life at 0.1 µM

C[C@H](CCCC(C)(C)O)[C@H]1CC[C@H]2[C@@H]3CC=C4C[C@@H](OC(=O)OCC[N+](C)(C)C)CC[C@]4(C)[C@H]3CC[C@]12C.[I-] [Compound 1.25]
> 8.33 h
C[C@H](CCCC(C)(C)O)[C@H]1CC[C@H]2[C@@H]3CC=C4C[C@@H](OC(=O)CCC(=O)O)CC[C@]4(C)[C@H]3CC[C@]12C [Compound 1.18]
> 8.33 h
